# System: Carrageenin-induced edema of the hind paw of the rat
# Run Description: Carrageenin-induced edema of the hind paw of the rat (anti-exudative effect)
# Format: in vivo, rat (male FW 49)
# Measurement Conditions: Rattus norvegicus, po, 3 h, 60 minutes before provocation, swelling 3 hours after, Table I, read-out: Carrageenin edema ED35 per os
Class 1: ED35 at least 10 mg/kg. Class 0: ED35 below 10 mg/kg.

Input line: Answer whether ED35 of C/C(=C\C(C)O)c1ccc(-c2ccccc2)c(Cl)c1 (stereo not drawn) is greater than or equal to 10 mg/kg.
Output line: 1

Input line: Decide: is the reported value of ED35 for C/C(=C\C(C)O)c1ccc(-c2ccccc2F)cc1 (stereo not drawn) equal to or greater than 10 mg/kg?
Output line: 1

Input line: hey, is ED35 for this one >= 10 mg/kg? CC(=O)/C=C(\C)c1ccc(C2CCCCC2)c(Br)c1
Output line: 1

Input line: Can CC(=O)CC(C)c1ccc(C2CCCCC2C)cc1 (stereo not drawn) be said to have ED35 at or above 10 mg/kg?
Output line: 1

Input line: Decide: is the reported value of ED35 for CC(O)CCCCCCc1ccc(-c2ccccc2F)cc1 (stereo not drawn) equal to or greater than 10 mg/kg?
Output line: 1

Input line: Given the entry CC(=O)CC(C)c1ccc(-c2ccccc2)cc1 (stereo not drawn) , answer whether its ED35 meets or surpasses 10 mg/kg.
Output line: 1

Input line: Can CC(=O)/C=C(\C)c1ccc(C2CCCCC2)cc1 be said to have ED35 at or above 10 mg/kg?
Output line: 1

Input line: Would you say CC(O)CC(C)c1ccc(C2CCCCC2)c(Cl)c1 (stereo not drawn) shows ED35 at minimum 10 mg/kg?
Output line: 0

Input line: Tell me whether ED35 is at least 10 mg/kg here: CC(=O)/C=C(\C)c1ccc(CC(C)C)c(Cl)c1
Output line: 1

Input line: Answer whether ED35 of CC(=O)CC(C)c1ccc(C2CCCCC2)c(Cl)c1 (stereo not drawn) is greater than or equal to 10 mg/kg.
Output line: 0

Input line: Kindly determine if ED35 recorded for CC(O)CCc1ccc(-c2ccccc2)c(F)c1 (stereo not drawn) is above or exactly 10 mg/kg.
Output line: 1

Input line: Exam item: decide whether the reported ED35 for CC(=O)/C=C(\C)c1ccc(C2CCCCC2)c(Cl)c1 is at least 10 mg/kg.
Output line: 0

Input line: ED35 >= 10 mg/kg for CC(O)/C=C/c1ccc(-c2ccccc2)c(F)c1 (stereo not drawn) ?
Output line: 1

Input line: Does the compound CC(=O)/C=C(\C)c1ccc(-c2ccccc2F)cc1 have recorded ED35 that is 10 mg/kg or more?
Output line: 0

Input line: Textbook exercise: given the entry C/C(=C\C(C)O)c1ccc(C2CCCCC2)c(Cl)c1 (stereo not drawn) , state whether its ED35 is greater than or equal to 10 mg/kg.
Output line: 0

----------
Kindly supply the reported ED35 values for the records listed here.
# Test system: Carrageenin-induced edema of the hind paw of the rat
# Run Description: Carrageenin-induced edema of the hind paw of the rat (anti-exudative effect)
# Assay type: in vivo, rat (male FW 49)
# Measurement Conditions: Rattus norvegicus, po, 3 h, 60 minutes before provocation, swelling 3 hours after, Table I, read-out: Carrageenin edema ED35 per os
Respond numerically; units are mg/kg and should not be typed.

Input line: I have this molecule here, CC(=O)/C=C(\C)c1ccc(-c2ccccc2)cc1 [G, (e)-4-(4-biphenylyl)-3-pentene-2-one] , and I need its recorded ED35.
Output line: 8.6

Input line: What does the record list as ED35 for CC(=O)CCCCCCc1ccc(-c2ccccc2F)cc1 ?
Output line: 14.5

Input line: What value of ED35 has been recorded for this entry: CC(O)CC(C)c1ccc(-c2ccccc2)c(F)c1 (stereo not drawn)
Output line: 16.5

Input line: Entry under review: C/C(=C\C(C)O)c1ccc(CC(C)C)c(Cl)c1 (stereo not drawn) . Reported ED35?
Output line: 52

Input line: // query ED35 value for entry CC(O)CC(C)c1ccc(C2CCCCC2)c(Br)c1 (stereo not drawn)
Output line: 18.5

Input line: Consider the molecule shown here: CC(=O)/C=C(\C)c1ccc([C@@H]2CCCC[C@H]2C)cc1 (relative stereo) What is its recorded ED35?
Output line: 13

Input line: Any idea what its ED35 is? The molecule is CC(=O)CC(C)c1ccc(-c2ccccc2)c(Cl)c1 (stereo not drawn)
Output line: 16.5

Input line: Reported ED35 for CC(=O)CCCCc1ccc(-c2ccccc2F)cc1 : what is it?
Output line: 10.5

Input line: // lookup ED35 for CC(=O)/C=C(\C)c1ccc(-c2ccccc2)c(Cl)c1
Output line: 5.6

----------
Task for the reader: assign each of the following compounds its reported ED35.
# Test system: Kaolin-induced edema of the hind paw of the rat
# Run Description: Kaolin-induced edema of the hind paw of the rat (anti-exudative effect)
# Format: in vivo, rat (male FW 49)
# Measurement Conditions: Rattus norvegicus, po, 5 h, 30 minutes before inducing edema, swelling 5 hours after, Table II, read-out: Kaolin edema ED35 per os
Respond with the bare value in mg/kg.

Input line: Find the recorded ED35 belonging to C/C(=C\C(C)O)c1ccc(-c2ccccc2F)cc1 (stereo not drawn) [K] and report it.
Output line: 17.5

Input line: Entry under review: C/C(=C\C(C)O)c1ccc(C2CCCCC2)c(Cl)c1 (stereo not drawn) [R] . Reported ED35?
Output line: 4.8

Input line: // returns reported ED35 for input CC(=O)CC(C)c1ccc(-c2ccccc2)cc1 (stereo not drawn) [E, 4-(4-biphenylyl)-2-pentanone]
Output line: 21

Input line: Need ED35, item CC(=O)CC(C)c1ccc(C2CCCCC2)c(Cl)c1 (stereo not drawn) [Q]
Output line: 5

Input line: Requested field: ED35. Item: CC(=O)/C=C(\C)c1ccc(C2CCCCC2)c(Cl)c1 [P]
Output line: 17

Input line: Given CC(=O)/C=C(\C)c1ccc(-c2ccccc2F)cc1 [H] , state its recorded ED35.
Output line: 37

Just for reference, patent US3950427A is where these values come from.
